Give IC50 for every item shown.
targetOrSystem: UniProt:P10275
Sequence (P10275 whole entry): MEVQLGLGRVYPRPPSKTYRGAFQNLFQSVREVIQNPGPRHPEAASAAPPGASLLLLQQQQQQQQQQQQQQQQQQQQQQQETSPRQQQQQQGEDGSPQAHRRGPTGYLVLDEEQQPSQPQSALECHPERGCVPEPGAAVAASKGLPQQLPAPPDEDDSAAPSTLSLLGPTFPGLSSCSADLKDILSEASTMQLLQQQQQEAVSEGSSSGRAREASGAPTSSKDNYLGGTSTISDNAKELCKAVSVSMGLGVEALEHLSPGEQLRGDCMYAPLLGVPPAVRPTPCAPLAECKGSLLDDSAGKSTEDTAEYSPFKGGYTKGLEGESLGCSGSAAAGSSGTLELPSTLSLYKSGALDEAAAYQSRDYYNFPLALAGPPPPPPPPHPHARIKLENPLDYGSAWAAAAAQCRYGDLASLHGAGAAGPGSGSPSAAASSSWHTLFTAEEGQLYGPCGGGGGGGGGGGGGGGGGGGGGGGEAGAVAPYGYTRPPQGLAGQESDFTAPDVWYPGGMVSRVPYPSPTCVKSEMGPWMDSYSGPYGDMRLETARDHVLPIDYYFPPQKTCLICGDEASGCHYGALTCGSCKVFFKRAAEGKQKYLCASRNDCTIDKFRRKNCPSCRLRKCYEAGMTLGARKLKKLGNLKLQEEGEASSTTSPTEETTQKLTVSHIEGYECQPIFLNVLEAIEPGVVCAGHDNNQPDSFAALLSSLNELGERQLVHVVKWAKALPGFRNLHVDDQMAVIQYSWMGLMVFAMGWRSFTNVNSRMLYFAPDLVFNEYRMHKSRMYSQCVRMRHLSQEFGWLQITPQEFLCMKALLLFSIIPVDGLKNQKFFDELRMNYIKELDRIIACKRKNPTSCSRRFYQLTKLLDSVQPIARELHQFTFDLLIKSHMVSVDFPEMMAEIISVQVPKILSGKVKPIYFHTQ
Reply with just the number (in µM).

Ask | Endpoint output: IC50 of C[C@@H]1N(c2ccc(C#N)c(Cl)c2)CC[C@@]1(O)c1ccc(C(=O)N(C)C)nc1 . Value?
Reply | 1.1

Ask | // query IC50 value for entry N#Cc1ccc(N2CCC(O)(Cc3ccccc3)C2)cc1Cl (stereo not given)
Reply | 0.42

Ask | Entry CNC(=O)c1ccc([C@@]2(O)CCN(c3ccc(C#N)c(Cl)c3)[C@@H]2C)cn1 has what IC50?
Reply | 1.6

Ask | Sample N#Cc1ccc(N2CCC(O)(c3ccc(F)cc3)C2)cc1Cl (racemic) — what was its IC50?
Reply | 0.18

Ask | Need IC50, item CNC(=O)c1ccc([C@]2(O)CCN(c3ccc(C#N)c(Cl)c3)[C@H]2C)cc1
Reply | 0.032
